Form field: Plant response rating, Bromegrass, Downy (one value per entry).
test system: downy brome; assay: Test C pre-/postemergence test; assay type: in vivo, Bromus tectorum; settings: Postemergence, 250 g ai/ha; scale 0 to 100, 0 no effect, 100 complete control

{"columns": ["Molecule", "Plant response rating, Bromegrass, Downy"],
 "data": [
  ["Cn1nc(C(F)(F)F)c(C[S+]([O-])c2ccc(Cl)c[n+]2[O-])c1OCC(F)(F)F (racemic)", 60],
  ["CC(Oc1c(CS(=O)(=O)c2cccc[n+]2[O-])c(C(F)(F)F)nn1C)C(F)(F)F (stereo not shown)", 0],
  ["Cn1nc(C(F)(F)C(F)(F)F)c(C[S+]([O-])c2cccc[n+]2[O-])c1OCC(F)(F)F (stereo not shown)", 60],
  ["Cc1cc[n+]([O-])c(S(=O)(=O)Cc2c(C(F)(F)F)nn(C)c2OC(F)F)c1", 0]
]}
